biological target: hOT7T175 (Homo sapiens, UniProt Q969F8, L364H); construct: expressed in transfected cells; type: cell-based; conditions: hOT7T175/CHO, FLIPR, evaluation for 40 seconds after initiation of the reaction
Sequence (Q969F8 whole entry L364H): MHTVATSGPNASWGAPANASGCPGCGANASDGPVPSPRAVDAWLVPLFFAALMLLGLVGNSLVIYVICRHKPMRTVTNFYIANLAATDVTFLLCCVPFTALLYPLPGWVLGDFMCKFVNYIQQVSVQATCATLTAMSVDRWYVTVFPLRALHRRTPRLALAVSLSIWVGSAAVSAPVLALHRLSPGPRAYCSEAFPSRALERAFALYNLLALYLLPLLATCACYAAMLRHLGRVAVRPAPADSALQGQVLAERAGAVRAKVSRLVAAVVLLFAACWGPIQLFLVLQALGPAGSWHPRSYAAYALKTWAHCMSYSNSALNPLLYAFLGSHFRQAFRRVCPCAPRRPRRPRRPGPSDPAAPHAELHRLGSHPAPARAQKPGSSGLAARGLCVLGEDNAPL
Non-standard residues stand in square brackets, D forms with d. No end group written: not given here. Arg(Me) = CNC(=N)NCCC[C@H](N)C(=O)O; azaGly = NNC(=O)O
For each record, write down the corresponding Specific Act. (EC50/MS10 EC50).
When you answer, write just the number.

Given item D-Trp-Asn-Thr-Phe-AzaGly-Leu-Arg(Me)-Trp-NH2 ([dW]NTF[azaGly]L[Arg(Me)]W-NH2; N-terminus assumed; SMILES CNC(=N)NCCC[C@H](NC(=O)[C@H](CC(C)C)NC(=O)NNC(=O)[C@H](Cc1ccccc1)NC(=O)[C@@H](NC(=O)[C@H](CC(N)=O)NC(=O)[C@H](N)Cc1c[nH]c2ccccc12)[C@@H](C)O)C(=O)N[C@@H](Cc1c[nH]c2ccccc12)C(N)=O) [Compound No. 665] , the value recorded as its Specific Act. (EC50/MS10 EC50) is 1.1

Given item D-Tyr-D-Pya(4)-Asn-Thr-Phe-AzaGly-Leu-Arg(Me)-Trp-NH2 [Compound No. 501] , the value recorded as its Specific Act. (EC50/MS10 EC50) is 1.1

Given item 2-Aminoethyl-Gly-D-Tyr-Asn-Trp-Asn-Ser-Phe-Gly-Leu-Arg(Me)-Phe-NH2 [Compound No. 375] , the value recorded as its Specific Act. (EC50/MS10 EC50) is 5.2

Given item D-Tyr-D-Pya(4)-Asn-Trp-Phe-AzaGly-Leu-Arg(Me)-Trp-NH2 [Compound No. 491] , the value recorded as its Specific Act. (EC50/MS10 EC50) is 1.0

Given item Ac-Tyr-Trp-Asn-Thr-Phe-AzaGly-Leu-Arg(Me)-Trp-NH2 (Ac-YWNTF[azaGly]L[Arg(Me)]W-NH2; SMILES CNC(=N)NCCC[C@H](NC(=O)[C@H](CC(C)C)NC(=O)NNC(=O)[C@H](Cc1ccccc1)NC(=O)[C@@H](NC(=O)[C@H](CC(N)=O)NC(=O)[C@H](Cc1c[nH]c2ccccc12)NC(=O)[C@H](Cc1ccc(O)cc1)NC(C)=O)[C@@H](C)O)C(=O)N[C@@H](Cc1c[nH]c2ccccc12)C(N)=O) [Compound No. 664] , the value recorded as its Specific Act. (EC50/MS10 EC50) is 0.6
